Reference for the values: ChEMBL document CHEMBL1151261

- Test system: MCF7
- TEST_PROTOCOL: Cytotoxicity against human MCF7 cells after 48 hrs by sulforhodamine B assay
- Type: functional
- PARTICULARS: MCF7, 48 h
ASSAY_METRIC: GI50

Previously resolved entries follow.
COc1ccc(/C=C\c2cc(O)c(OC)c(OC)c2)cc1N.Cl : < 0.01 µg/mL
COc1ccc(/C=C\c2cc(N)c(OC)c(OC)c2)cc1N : < 0.01 µg/mL

Exam item: Please give the measured GI50 for this compound: COc1ccc(/C=C\c2cc(F)c(OC)c(OC)c2)cc1O
Marked response: < 0.0027 µg/mL
